system: LOC_OS01G57100-cb003; test: thermal shift delta Tm vs DMSO control; higher = stronger stabilization (binding); conditions: 12.5 µM; protein concentration 2 µM;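 further: purified Escherichia coli-expressed rice kinase domain construct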
Note to self: values exactly at 0.4 °C are YES. So thermal shift delta Tm at or above 0.4 °C is YES, below is NO.

Query: Textbook exercise: given the entry `NC[C@@](O)(c1ccc(Cl)cc1)c1ccc(-c2cn[nH]c2)cc1` , state whether its thermal shift delta Tm is greater than or equal to 0.4 °C.
Response: YES

Query: Textbook exercise: given the entry `Cc1cc(F)c(Nc2ncnc3cc(OCc4ccccc4)ccc23)cc1O` , state whether its thermal shift delta Tm is greater than or equal to 0.4 °C.
Response: YES

Query: Textbook exercise: given the entry `Nc1ncnc2c1c(-c1cnc3[nH]ccc3c1)nn2C1CCCC1` , state whether its thermal shift delta Tm is greater than or equal to 0.4 °C.
Response: YES

Query: Textbook exercise: given the entry `CCn1c(-c2nonc2N)nc2cnc(Oc3cccc(NC(=O)c4ccc(OCCN5CCOCC5)cc4)c3)cc21` , state whether its thermal shift delta Tm is greater than or equal to 0.4 °C.
Response: NO

* * *

system: LOC_OS05G43570-cb004; test: thermal shift delta Tm vs DMSO control; higher = stronger stabilization (binding); conditions: 12.5 µM; protein concentration 2 µM
Note to self: values exactly at 0.5 °C are 1.0. So thermal shift delta Tm at or above 0.5 °C is 1.0, below is 0.0.

Query: Textbook exercise: given the entry COc1ccc(S(=O)(=O)N(CCO)c2ccccc2CN(C)C/C=C/c2ccc(Cl)cc2)cc1 [KN-93 Phosphate] , state whether its thermal shift delta Tm is greater than or equal to 0.5 °C.
Response: 0.0

Query: Textbook exercise: given the entry `CCc1cncnc1N1CCN(Cc2nc3ccc(C(F)(F)F)cc3[nH]2)CC1` , state whether its thermal shift delta Tm is greater than or equal to 0.5 °C.
Response: 0.0

Query: Textbook exercise: given the entry `CO[C@H]1C[C@@H]2CC[C@@H](C)[C@@](O)(O2)C(=O)C(=O)N2CCCC[C@H]2C(=O)O[C@H]([C@H](C)C[C@@H]2CC[C@@H](OC(=O)C(C)(CO)CO)[C@H](OC)C2)CC(=O)[C@H](C)/C=C(\C)[C@@H](O)[C@@H](OC)C(=O)[C@H](C)C[C@H](C)/C=C/C=C/C=C/1C` , state whether its thermal shift delta Tm is greater than or equal to 0.5 °C.
Response: 0.0

Query: Textbook exercise: given the entry `CS(=O)(=O)c1ccc(-c2cnc(N)c(C(=O)Nc3ccccc3)n2)cc1` , state whether its thermal shift delta Tm is greater than or equal to 0.5 °C.
Response: 0.0

Query: Textbook exercise: given the entry `CCS(=O)(=O)N1CC(CC#N)(n2cc(-c3ncnc4[nH]ccc34)cn2)C1` , state whether its thermal shift delta Tm is greater than or equal to 0.5 °C.
Response: 1.0

Query: Textbook exercise: given the entry `CC[C@@H](N)CNc1ccnc(-c2cc(-c3cnn(C)c3)ccc2O)n1` , state whether its thermal shift delta Tm is greater than or equal to 0.5 °C.
Response: 0.0

Query: Textbook exercise: given the entry CN1CCN(C2CCN(C(=O)Nc3cc(Oc4ccc(NC(=O)C5(C(=O)Nc6ccc(F)cc6)CC5)c(F)c4)ccn3)CC2)CC1 [Golvatinib (E7050)] , state whether its thermal shift delta Tm is greater than or equal to 0.5 °C.
Response: 1.0

Query: Textbook exercise: given the entry `CC(C)n1nc(-c2cc3cc(O)ccc3[nH]2)c2c(N)ncnc21` , state whether its thermal shift delta Tm is greater than or equal to 0.5 °C.
Response: 0.0

Query: Textbook exercise: given the entry `CC(C)(C)c1cc(NC(=O)Nc2ccc(-c3cn4c(n3)sc3cc(OCCN5CCOCC5)ccc34)cc2)no1` , state whether its thermal shift delta Tm is greater than or equal to 0.5 °C.
Response: 0.0

Query: Textbook exercise: given the entry `CS(=O)(=O)CCNCc1ccc(-c2ccc3ncnc(Nc4ccc(OCc5cccc(F)c5)c(Cl)c4)c3c2)o1` , state whether its thermal shift delta Tm is greater than or equal to 0.5 °C.
Response: 1.0

Query: Textbook exercise: given the entry `Cn1cc(C2=C(c3ccc(Cl)cc3Cl)C(=O)NC2=O)c2ccccc21` , state whether its thermal shift delta Tm is greater than or equal to 0.5 °C.
Response: 1.0

Query: Textbook exercise: given the entry `O=C1Cc2c([nH]c3ccc(Br)cc23)-c2ccccc2N1` , state whether its thermal shift delta Tm is greater than or equal to 0.5 °C.
Response: 1.0

Query: Textbook exercise: given the entry `Cc1nc(NC(=O)N2CCC[C@H]2C(N)=O)sc1-c1ccnc(C(C)(C)C(F)(F)F)c1` , state whether its thermal shift delta Tm is greater than or equal to 0.5 °C.
Response: 0.0
